# settings: human gut metagenome, 24 h, 2 µM; further: call rule not given here
measure: Bacterial Biotransformation

Example entries and their recorded answers appear below.
INSERT INTO measurements (molecule, reading) VALUES
  ('Cc1ccc(/C(=C\CN2CCCC2)c2ccccn2)cc1', 'Compound NOT metabolized'),
  ('CCN(CC)CCOCCOC(=O)C1(c2ccccc2)CCCC1.O=C(O)CC(O)(CC(=O)O)C(=O)O [CARBETAPENTANE CITRATE]', 'Compound metabolized'),
  ('CN1CCC(=C2c3ccccc3CCc3cccnc32)CC1.O=C(O)/C=C\C(=O)O.O=C(O)/C=C\C(=O)O [AZATADINE MALEATE]', 'Compound NOT metabolized'),
  ('COc1ccc2c(c1OC)C(=O)O[C@@H]2[C@H]1c2c(cc3c(c2OC)OCO3)CCN1C', 'Compound metabolized'),
  ('CC(C(=O)O)c1ccc2c(c1)Cc1cccnc1O2 (centres undefined)', 'Compound metabolized');

[in] Determine its reported Bacterial Biotransformation: `O=C(CCCN1CCC(O)(c2ccc(Cl)cc2)CC1)c1ccc(F)cc1`
[out] Compound metabolized

[in] Note Bacterial Biotransformation for the molecule shown: CCN(CC)CC#CCOC(=O)C(O)(c1ccccc1)C1CCCCC1.Cl (centres undefined) [OXYBUTYNIN CHLORIDE]
[out] Compound metabolized

[in] Find the measured Bacterial Biotransformation of `CCOc1ccc(NC(C)=O)cc1` and report it.
[out] Compound NOT metabolized

[in] Determine its reported Bacterial Biotransformation: `OCCN1CCN(CCCN2c3ccccc3Sc3ccc(C(F)(F)F)cc32)CC1`
[out] Compound metabolized

[in] Specify reported Bacterial Biotransformation for the molecule shown: O=C(NCc1ccccc1)OCCO [BURAMATE]
[out] Compound NOT metabolized

[in] Provide only the value of recorded Bacterial Biotransformation for CCN(CC)CCNC(C(=O)OCCC(C)C)c1ccccc1.Cl.Cl (centres undefined)
[out] Compound metabolized

[in] Give a short answer stating reported Bacterial Biotransformation for `CN(C(=O)CN(CCO)CC(=O)N(C)C(C)(C)Cc1ccccc1)C(C)(C)Cc1ccccc1` .
[out] Compound metabolized

[in] Using known records, supply Bacterial Biotransformation for `CCCCCOC(=O)Nc1nc(=O)n([C@@H]2O[C@H](C)[C@@H](O)[C@H]2O)cc1F`
[out] Compound metabolized

[in] Tell me its Bacterial Biotransformation given `CCCCc1nc(Cl)c(CO)n1Cc1ccc(-c2ccccc2-c2nn[nH]n2)cc1` as the entry.
[out] Compound metabolized

[in] Return the recorded Bacterial Biotransformation value; entry: CC(CN1c2ccccc2Sc2ccccc21)N(C)C (centres undefined)
[out] Compound metabolized

[in] Annotate the molecule `Cc1ccnc2c1NC(=O)c1cccnc1N2C1CC1` with its measured Bacterial Biotransformation.
[out] Compound metabolized

[in] Indicate the recorded Bacterial Biotransformation value for this molecule: CNCCC(Oc1ccc(C(F)(F)F)cc1)c1ccccc1 (centres undefined)
[out] Compound NOT metabolized

[in] For the molecule `CN1CCc2c(c3ccccc3n2Cc2ccccc2)C1.CN1CCc2c(c3ccccc3n2Cc2ccccc2)C1.O=S(=O)(O)c1cccc2c(S(=O)(=O)O)cccc12` , report Bacterial Biotransformation.
[out] Compound NOT metabolized

[in] For `c1ccc([C@H]2CN3CCSC3=N2)cc1` , write its Bacterial Biotransformation.
[out] Compound metabolized

[in] // fetch Bacterial Biotransformation given entry CCCC(=O)Nc1ccc(OCC(O)CNC(C)C)c(C(C)=O)c1 (centres undefined)
[out] Compound metabolized

[in] Could you please provide reported Bacterial Biotransformation for `OC(Cn1cncn1)(Cn1cncn1)c1ccc(F)cc1F` ? Thanks!
[out] Compound metabolized

[in] Find the measured Bacterial Biotransformation of CC(=O)O[C@]1(C(C)=O)CC[C@H]2[C@@H]3C=C(Cl)C4=CC(=O)[C@@H]5C[C@@H]5[C@]4(C)[C@H]3CC[C@@]21C [CYPROTERONE ACETATE] and report it.
[out] Compound metabolized

[in] Return reported Bacterial Biotransformation. Input molecule: `CCCCC1=NC2(CCCC2)C(=O)N1Cc1ccc(-c2ccccc2-c2nnn[nH]2)cc1`
[out] Compound metabolized

[in] Return reported Bacterial Biotransformation. Input molecule: CC(C)NCC(O)COc1ccc(COCCOC(C)C)cc1.CC(C)NCC(O)COc1ccc(COCCOC(C)C)cc1.O=C(O)/C=C/C(=O)O (centres undefined) [BISOPROLOL FUMARATE]
[out] Compound metabolized

[in] Please report the measured Bacterial Biotransformation for `CCCc1nc(C(C)(C)O)c(C(=O)OCc2oc(=O)oc2C)n1Cc1ccc(-c2ccccc2-c2nnn[nH]2)cc1`
[out] Compound metabolized

[in] Give me measured Bacterial Biotransformation, please, for this molecule: `COc1cc2c(c(OC)c1OC)-c1ccc(OC)c(=O)cc1[C@@H](NC(C)=O)CC2`
[out] Compound metabolized

[in] Consider the molecule COc1ccccc1N1CCN(CC(O)COc2cccc3ccccc23)CC1 (centres undefined) and give its recorded Bacterial Biotransformation.
[out] Compound NOT metabolized

[in] Let me know recorded Bacterial Biotransformation for `CC(C)c1nc(CN(C)C(=O)N[C@H](C(=O)N[C@@H](Cc2ccccc2)C[C@H](O)[C@H](Cc2ccccc2)NC(=O)OCc2cncs2)C(C)C)cs1` , thanks.
[out] Compound metabolized
